Assay: Compound solubility in water
Assay type: physicochemical
ATTRIBUTE MEASURED: solubility (µg/mL)

These solved cases illustrate the format of a correct answer.
If you can, please state the reported solubility value of Cc1cc(-c2cc(F)c3ocnc3c2)nc2c(C(=O)NC(C)C(F)(F)F)cnn12 (stereo not drawn) .
3.4

If you can, please state the reported solubility value of "Cc1cc(N2CCCCC2)n2ncc(C(=O)N[C@@H](C)C3CC3)c2n1" .
4.7

[I] COc1cc(-c2cc(C)n3ncc(C(=O)NC(C)C(F)(F)F)c3n2)ccc1F (stereo not drawn)
[II] Cc1cc(N2CCCC(F)(F)C2)nc2c(C(=O)NC(C)C3CC3)cnn12 (stereo not drawn)
Could you tell me which of these two has the smaller solubility figure? First: I Second: II // caller expects the label of the chosen entry
I

[P] COc1c(C#N)cccc1-c1cc(C)n2ncc(C(=O)NC(C)C(F)(F)F)c2n1 (stereo not drawn)
[Q] Cc1cc(-c2cncc(Cl)c2)nc2c(C(=O)NC(C3CC3)C(F)(F)F)cnn12 (stereo not drawn)
Pick the one with the larger solubility: P vs Q // caller expects the label of the chosen entry
P
(P: 2.2 µg/mL, Q: 0.08 µg/mL)

[a] CCc1cc(-c2ccccn2)nc2c(C(=O)NC(C)C(F)(F)F)cnn12 (stereo not drawn)
[b] C#Cc1cncc(-c2cc(C)n3ncc(C(=O)N[C@@H](C4CC4)C(F)(F)F)c3n2)c1
[c] Cc1cc(-c2cc(F)c3c(c2)OCO3)nc2c(C(=O)NC(C)C(F)(F)F)cnn12 (stereo not drawn)
[d] Cc1cc(N2CCN(C(C)C)C2=O)nc2c(C(=O)NC(C)C(F)(F)F)cnn12 (stereo not drawn)
[e] COc1cccc(-c2cc(C)n3ncc(C(=O)NC(C4CC4)C(F)(F)F)c3n2)c1 (stereo not drawn)
Rank entries according to their solubility, from the largest number down. Rank the items, then write their labels in that order.
d, a, c, b, e

[1] Cc1cc(N2CCN(C(C)C)C2=O)nc2c(C(=O)NC(C)(C)C(F)(F)F)cnn12
[2] Cc1cc(-c2cccc(Cl)c2)nc2c(C(=O)NC(C)C(F)(F)F)cnn12 (stereo not drawn)
[3] Cc1cc(-c2nc3ccccc3[nH]2)nc2c(C(=O)NC(C3CC3)C(F)(F)F)cnn12 (stereo not drawn)
[4] Cc1cc(N2CCCN(C(C)C)C2=O)nc2c(C(=O)NC(C)(C)C(F)(F)F)cnn12
Rank entries according to their solubility, from the largest number down. Rank the items, then write their labels in that order.
4, 2, 1, 3
(4: 19 µg/mL, 2: 6.2 µg/mL, 1: 3 µg/mL, 3: 0.6 µg/mL)

====

Assay: Compound solubility in water
Format: physicochemical
ATTRIBUTE MEASURED: solubility (µg/mL)

If you can, please state the reported solubility value of Cc1cc(-c2cccnc2C(F)(F)F)nc2c(C(=O)N[C@H](C3CC3)C(F)(F)F)cnn12 [III-355] .
0.1

If you can, please state the reported solubility value of CO[C@H]1CC[C@H]([C@@H](C)NC(=O)c2cnn3c(C)cc(C)nc23)CC1 [III-403] .
21.4

If you can, please state the reported solubility value of Cc1cc(N2CCN(C(C)C)C2=O)nc2c(C(=O)NC(C)(C)C3CC3)cnn12 [III-230] .
2.6

If you can, please state the reported solubility value of Cc1cc(-c2ccc3c(c2)OCO3)nc2c(C(=O)N[C@@H](C)C3CC3)cnn12 [III-210] .
2.4

If you can, please state the reported solubility value of Cc1ccncc1-c1cc(C)n2ncc(C(=O)NC(C3CC3)C(F)(F)F)c2n1 (centres unmarked) [III-274] .
2.3

[1] COc1ccc(F)cc1-c1cc(C)n2ncc(C(=O)N[C@H](C)C(F)(F)F)c2n1 [III-195]
[2] Cc1cc(-c2ccc(F)cn2)nc2c(C(=O)NC(C3CC3)C(F)(F)F)cnn12 (centres unmarked) [III-204]
Could you tell me which of these two has the smaller solubility figure? First: 1 Second: 2 // caller expects the label of the chosen entry
1
(1: 0.01 µg/mL, 2: 0.1 µg/mL)
